# Test system: NCI/ADR-RES
# protocol.notes: Growth inhibition of human NCI/ADR-RES cells at 10 uM after 48 hrs by SRB method
# Type: functional
# assay.setup: read-out: GI
Some molecules, each annotated with its measured inhibition of growth at 10 µM.
reported.metric: inhibition of growth at 10 µM

[[record]]
chemical_structure = "O=C(CN1CCN(c2nnc(-c3ccccc3)c3ccccc23)CC1)Nc1nc(-c2ccccc2)cs1"
reported_metric = "inhibition of growth at 10 µM"
reading = "45%"

[[record]]
chemical_structure = "CCOC(=O)c1ccc(NC(=O)CN2CCN(c3nnc(-c4ccccc4)c4ccccc34)CC2)cc1"
reported_metric = "inhibition of growth at 10 µM"
reading = "67%"

[[record]]
chemical_structure = "O=C(CN1CCN(c2nnc(-c3ccccc3)c3ccccc23)CC1)Nc1nc(-c2ccc(Cl)cc2)cs1"
reported_metric = "inhibition of growth at 10 µM"
reading = "39%"

[[record]]
chemical_structure = "Cc1nc(NC(=O)CN2CCN(c3nnc(-c4ccccc4)c4ccccc34)CC2)sc1C(=O)Nc1ccccc1"
reported_metric = "inhibition of growth at 10 µM"
reading = "59%"

[[record]]
chemical_structure = "O=C(CN1CCN(c2nnc(-c3ccccc3)c3ccccc23)CC1)Nc1nccs1"
reported_metric = "inhibition of growth at 10 µM"
reading = "32%"


Ref: ChEMBL document CHEMBL3751694
